# Protocol: Thermodynamic solubility in FaSSIF
# Assay type: physicochemical
# Setup conditions: read-out: Therm_solubility
Test readout: solubility thermodynamic (µg/mL)

CCOc1cc(NC(=O)NCc2cc(C)c(-c3cn(C)nc3C(F)(F)F)nn2)cc(C(F)(F)F)n1 | 23

P. CCOc1cc(NC(=O)NCc2cc(C)c(-c3cn(C)nc3C(F)(F)F)nn2)cc(Cl)n1
Q. CCOc1nc(C)cc(NC(=O)NCc2cc(C)c(-c3cn(C)nc3C(F)(F)F)nn2)c1C
Q) Identify the entry with the larger solubility thermodynamic. Options: P and Q Output the label that corresponds to your choice.
A) P
(P: 36 µg/mL, Q: 15 µg/mL)

====

# Protocol: Plasma protein binding CD1 mouse plasma at 5 uM incubated for 4 hrs
# Format: ADME, cell-free
# Setup conditions: read-out: PPB (converted)
Test readout: fraction unbound at 4 h, 5 µM

P. CCOc1cc(NC(=O)NCc2cc(C)c(-c3cn(C)nc3C(F)(F)F)nn2)cc(Cl)n1
Q. CCOc1nc(C)cc(NC(=O)NCc2cc(C)c(-c3cn(C)nc3C(F)(F)F)nn2)c1C
R. CCOc1cc(NC(=O)NCc2cc(C)c(-c3cn(C)nc3C(F)(F)F)nn2)cc(C(F)(F)F)n1
Q) Order the records so the highest fraction unbound at 4 h, 5 µM appears first and the lowest last. Put the labels in the requested order and list them out.
A) Q, P, R
(Q: 0.014, P: 0.002, R: 0.001)

====

# Target system: CYP2C9 (Homo sapiens, UniProt P11712)
# Sequence (P11712 whole entry): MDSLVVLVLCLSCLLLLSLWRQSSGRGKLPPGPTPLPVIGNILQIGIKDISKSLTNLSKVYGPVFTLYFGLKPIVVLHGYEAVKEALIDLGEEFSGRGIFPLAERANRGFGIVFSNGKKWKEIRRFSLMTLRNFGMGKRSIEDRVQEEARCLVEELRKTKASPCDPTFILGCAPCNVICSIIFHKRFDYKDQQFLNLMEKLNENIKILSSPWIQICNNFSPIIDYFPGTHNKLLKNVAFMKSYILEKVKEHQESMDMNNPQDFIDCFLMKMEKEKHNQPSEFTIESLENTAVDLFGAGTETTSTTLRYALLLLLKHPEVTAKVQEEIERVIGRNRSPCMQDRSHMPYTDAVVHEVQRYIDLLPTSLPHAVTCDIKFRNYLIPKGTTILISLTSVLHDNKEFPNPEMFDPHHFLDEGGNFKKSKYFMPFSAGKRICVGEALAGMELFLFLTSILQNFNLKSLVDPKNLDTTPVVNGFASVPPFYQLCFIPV
# Protocol: Inhibition of recombinant CYP2C9 (unknown origin) at 10 uM
# Format: ADME
Test readout: inhibition at 10 µM (%)

P. CCOc1cc(NC(=O)NCc2cc(C)c(-c3cn(C)nc3C(F)(F)F)nn2)cc(Cl)n1
Q. CCOc1cc(NC(=O)NCc2cc(C)c(-c3cn(C)nc3C(F)(F)F)cn2)cc(Cl)n1
Q) Identify the item whose inhibition at 10 µM is the smaller number: P or Q Output the label that corresponds to your choice.
A) P
(P: 58%, Q: 83%)

====

# Protocol: Oral bioavailability in Sprague-Dawley rat at 10 mg/kg measured up to 24 hrs by LC-MS/MS analysis
# Assay type: ADME, organism-based
# Setup conditions: in vivo
Test readout: bioavailability (%)
Write the answer as a number in %, unit excluded.

For this compound ( `CCOc1nc(C)cc(NC(=O)NCc2cc(C)c(-c3cn(C)nc3C(F)(F)F)nn2)c1C` ), measured bioavailability is 84

====

# Target system: UniProtKB O95136
# Protocol: Antagonist activity at human S1P2 receptor expressed in CHO cells assessed as EC80 S1P-induced calcium flux measured for 3 mins by fluorescence assay
# Format: functional, cell-based
pIC50: −log10 of the molar value.
Test readout: pIC50

Cc1cc(NNC(=O)Nc2cc(Cl)nc(Cl)c2)ncc1-c1cnn(C)c1 | 5.59

A. Cc1cc(CNC(=O)Nc2cc(OCCN(C)C)nc(C(F)(F)F)c2)nnc1-c1cn(C)nc1C(F)(F)F
B. Cc1cc(CNC(=O)Nc2cc(Cl)cc(Cl)c2)ncc1-c1cn(C)nc1C
Q) Identify the item whose pIC50 is the smaller number: A or B Output the label that corresponds to your choice.
A) A
(A: 2.67, B: 6.80)

====

# Protocol: Oral bioavailability in CD1 mouse at 5 mg/kg measured up to 24 hrs by LC-MS/MS analysis
# Format: ADME, organism-based
# Setup conditions: in vivo
Test readout: bioavailability (%)

CCOc1nc(C)cc(NC(=O)NCc2cc(C)c(-c3cn(C)nc3C(F)(F)F)nn2)c1C | 29

A. CCOc1cc(NC(=O)NCc2cc(C)c(-c3cn(C)nc3C(F)(F)F)nn2)cc(Cl)n1
B. CCOc1cc(NC(=O)NCc2cc(C)c(-c3cn(C)nc3C(F)(F)F)nn2)cc(C(F)(F)F)n1
Q) Identify the item whose bioavailability is the smaller number: A or B Output the label that corresponds to your choice.
A) A

====

# Protocol: Half life in Sprague-Dawley rat at 1 mg/kg, iv measured up to 24 hrs by LC-MS/MS analysis
# Assay type: ADME, organism-based
# Setup conditions: in vivo
Test readout: half-life (h)

CCOc1cc(NC(=O)NCc2cc(C)c(-c3cn(C)nc3C(F)(F)F)nn2)cc(Cl)n1 | 1.1

I. CCOc1nc(C)cc(NC(=O)NCc2cc(C)c(-c3cn(C)nc3C(F)(F)F)nn2)c1C
II. CCOc1cc(NC(=O)NCc2cc(C)c(-c3cn(C)nc3C(F)(F)F)nn2)cc(C(F)(F)F)n1
Q) Identify the entry with the larger half-life. Options: I and II Output the label that corresponds to your choice.
A) II

====

# Target system: Sphingosine 1-phosphate receptor 2 (Homo sapiens)
# Sequence (O95136 whole entry): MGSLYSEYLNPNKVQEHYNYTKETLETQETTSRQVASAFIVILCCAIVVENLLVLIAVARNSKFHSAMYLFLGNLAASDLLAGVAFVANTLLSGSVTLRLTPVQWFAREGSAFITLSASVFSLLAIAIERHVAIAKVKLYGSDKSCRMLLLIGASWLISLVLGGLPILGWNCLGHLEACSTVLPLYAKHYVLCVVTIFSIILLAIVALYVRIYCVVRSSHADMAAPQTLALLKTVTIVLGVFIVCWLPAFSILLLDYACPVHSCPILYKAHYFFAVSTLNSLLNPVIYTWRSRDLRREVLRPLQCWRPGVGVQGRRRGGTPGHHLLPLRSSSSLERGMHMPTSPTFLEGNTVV
# Protocol: Antagonist activity at recombinant human S1P2 receptor expressed in CHO cells assessed as EC80 S1P-induced activation incubated for 4 hrs in presence of [35S]GTPgammaS by Topcount reader
# Assay type: functional, cell-based
Test readout: IC50 (µM)

COCCOc1cc(NC(=O)NCc2cc(C)c(-c3cn(C)nc3C(F)(F)F)nn2)cc(Cl)n1 | 640

I. CCOc1cc(NC(=O)NCc2cc(C)c(-c3cn(C)nc3C(F)(F)F)cn2)cc(Cl)n1
II. Cc1cc(NNC(=O)Nc2cc(Cl)nc(Cl)c2)ncc1-c1ccn(C)n1
Q) Identify the item whose IC50 is the smaller number: I or II Output the label that corresponds to your choice.
A) II

====

# Protocol: Oral bioavailability in Sprague-Dawley rat at 5 mg/kg measured up to 24 hrs by LC-MS/MS analysis
# Type: ADME, organism-based
# Setup conditions: in vivo
Test readout: bioavailability (%)

1. CCOc1cc(NC(=O)NCc2cc(C)c(-c3cn(C)nc3C(F)(F)F)nn2)cc(Cl)n1
2. CCOc1cc(NC(=O)NCc2cc(C)c(-c3cn(C)nc3C(F)(F)F)nn2)cc(C(F)(F)F)n1
Q) Identify the entry with the larger bioavailability. Options: 1 and 2 Output the label that corresponds to your choice.
A) 2
(2: 29%, 1: 10%)

====

# Protocol: Clearance in CD1 mouse at 1 mg/kg, iv measured up to 24 hrs by LC-MS/MS analysis
# Assay type: ADME, organism-based
# Setup conditions: in vivo
Test readout: clearance (mL/min/kg)

CCOc1nc(C)cc(NC(=O)NCc2cc(C)c(-c3cn(C)nc3C(F)(F)F)nn2)c1C | 12.2

P. CCOc1cc(NC(=O)NCc2cc(C)c(-c3cn(C)nc3C(F)(F)F)nn2)cc(Cl)n1
Q. CCOc1cc(NC(=O)NCc2cc(C)c(-c3cn(C)nc3C(F)(F)F)nn2)cc(C(F)(F)F)n1
Q) Identify the item whose clearance is the smaller number: P or Q Output the label that corresponds to your choice.
A) Q
(Q: 4 mL/min/kg, P: 10.3 mL/min/kg)

====

# Protocol: Intrinsic clearance unbound in human liver microsomes at 1 uM […] by LC-MS/MS analysis
# Assay type: ADME, Microsome
Test readout: CL free (mL/min/kg)

Field: example entries. Status: answers known.
Cc1cc(CNC(=O)Nc2cc(OCC(O)CO)nc(C(F)(F)F)c2)nnc1-c1cn(C)nc1C(F)(F)F (stereo unspecified) | 31.7
Cc1cc(CNC(=O)Nc2cc(OCCN(C)C)nc(C(F)(F)F)c2)nnc1-c1cn(C)nc1C(F)(F)F | 23.3
CCOc1cc(NC(=O)NCc2cc(C)c(N3CC(C)OC(C)C3)cn2)cc(Cl)n1 (stereo unspecified) | 125
CCOc1cc(NC(=O)NCc2cc(C)c(-c3cn(C)nc3C(F)(F)F)cn2)cc(Cl)n1 | 150

1. CCOc1cc(NC(=O)NCc2cc(C)c(Nc3cn(C)nc3C)cn2)cc(C(F)(F)F)n1
2. CCOc1nc(C)cc(NC(=O)NCc2cc(C)c(-c3cn(C)nc3C(F)(F)F)nn2)c1C
Q) Identify the entry with the larger CL free. Options: 1 and 2 Output the label that corresponds to your choice.
A) 1

====

# Target system: Sphingosine 1-phosphate receptor 2 (Homo sapiens)
# Protocol: Antagonist activity at recombinant human S1P2 receptor in HFL1 cells assessed as inhibition of EC80 S1P-induced IL8 release incubated for 16 to 24 hrs in presence of 2% HSA by ELISA
# Format: functional, cell-based
pIC50: −log10 of the molar value.
Test readout: pIC50

Field: example entries. Status: answers known.
CCOc1cc(NC(=O)NCc2cc(C)c(-c3cn(C)nc3C(F)(F)F)nn2)cc(C(F)(F)F)n1 | 7.06
CCOc1nc(C#N)cc(NC(=O)NCc2cc(C)c(-c3cn(C)nc3C(F)(F)F)nn2)c1C | 7.77
CCOc1cc(NC(=O)NCc2cc(C)c(-c3cn(C)nc3C(F)(F)F)nn2)cc(C#N)n1 | 7.17
CCOc1nc(C)cc(NC(=O)NCc2cc(C)c(-c3cn(C)nc3C(F)(F)F)nn2)c1Cl | 7.31
CCOc1nc(Cl)cc(NC(=O)NCc2cc(C)c(-c3cn(C)nc3C(F)(F)F)nn2)c1C | 7.49

I. CCOc1cc(NC(=O)NCc2cc(C)c(-c3cn(C)nc3C(F)(F)F)nn2)cc(C)n1
II. Cc1cc(CNC(=O)Nc2cc(Cl)nc(OCC(F)F)c2)nnc1-c1cn(C)nc1C(F)(F)F
Q) Identify the entry with the larger pIC50. Options: I and II Output the label that corresponds to your choice.
A) II
(II: 7.15, I: 6.71)
